system: HUVEC; experiment: cells; conditions: Homo sapiens
Observed Property: pIC50
Here pIC50 is given on a logarithmic scale as minus log10 of the concentration in mol/L.

I have this molecule here, Cc1ccc(Nc2nccc(N(C)c3ccc4c(C)n(C)nc4c3)n2)cc1S(N)(=O)=O , and I need its recorded pIC50.
6.14
